Reported self-cleavage values for a set of variants
B1: LINE1-mini (parent)
chain: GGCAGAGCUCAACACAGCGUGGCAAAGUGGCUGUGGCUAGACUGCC

variants of: B1; assay: self-cleavage, relative activity (ratio to wild type); higher = more cleavage; in vitro, sequencing; the parent is a self-cleaving ribozyme

Sample answers from the record:
U9G C42A
0.08
U20A A25U
0.77
A6U G22U
0.79
U34G C46G
0.14
C3A G29A
0.51
C8G A12U
0.13

[in] Return reported self-cleavage. Input variant: U9G U20G
[out] 0.06

[in] Return reported self-cleavage. Input variant: A24C G36C
[out] 0.1

[in] Return reported self-cleavage. Input variant: A16U G44C
[out] 0.03

[in] Return reported self-cleavage. Input variant: G2C U9C
[out] 0.03

[in] Return reported self-cleavage. Input variant: C10G A41C
[out] 0.01

[in] Return reported self-cleavage. Input variant: G1C C45U
[out] 0.15

[in] Return reported self-cleavage. Input variant: A24G C37U
[out] 0.05
